test system: Coxsackievirus A16 (CoxA16); experiment: Impact on virus-induced cytopathic effect in Vero cells (MTT): CoxA16; assay type: cell-based; conditions: CoxA16 100TCID50, Vero, 72 h; drug g/L as Table 1-2
Marks after values point to notes of the source that are not given here.
Entries annotated with measured antiviral effective rate (ER %)

Q: Data request, read-out antiviral effective rate (ER %), for COc1ccc([C@H]2OCC3C2CO[C@H]3c2ccc(O[C@@H]3OC(CO)[C@@H](O)[C@H](O)C3O)c(OC)c2)cc1OC (stereo partly shown)
Ans: 75.08** %

---
Q: Query (molecule): NC(=O)c1ncn([C@@H]2O[C@H](CO)[C@@H](O)[C@H]2O)n1 ; field requested: antiviral effective rate (ER %)
Ans: 0.70%

Q: Field request: antiviral effective rate (ER %) | item: CCOC(=O)C1=C[C@@H](OC(CC)CC)[C@H](NC(C)=O)[C@@H](N)C1 [oseltamivir phosphate]
Ans: 2.95%

Q: Which value of antiviral effective rate (ER %) has been reported for COc1cc([C@H]2OC[C@H]3[C@@H]2CO[C@H]3c2ccc(OC)c(OC)c2)ccc1O in the records?
Ans: 50.04%
